- System: Plasmodium falciparum
- PROTOCOL: Screen against P. falciparum Asexual Blood Stage (ABS), at 5uM
- Type: functional, Dd2
- TEST_PARAMETERS: tested at 5 uM
Hit rate of the full screen: of about 65,000 compounds, about 2,100 (3.2%) showed an effect of 50% or more. The median lay at about -52%. This is one part of a sample in which strong results are shown more often than they occur.
Use -10% as the dividing line for INHIBITION, with the line itself on the fulfilled side and lower values as not fulfilled.

INSERT INTO assay_data (compound, classification) VALUES
  ('CN1CCN(Cc2ccco2)Cc2cccnc21', 'not fulfilled'),
  ('Cc1ccc(CN2CCC3(CCN(Cc4ccncc4)CC3)CC2)cc1', 'fulfilled'),
  ('CC(C)N1CCN(C)C2(CCN(C(=O)c3ccnnc3)CC2)C1=O', 'not fulfilled'),
  ('CC[C@H](C)[C@@H](CO)NC(C)Cc1ccc(F)cc1 (stereo partly specified)', 'fulfilled'),
  ('Cc1ccc(CN2CCC3(CC2)CCN(Cc2ccco2)CC3)cc1', 'fulfilled'),
  ('O=C(N1CCOCC1)[C@@]12CCO[C@@H]1CCN(Cc1ccncc1)C2', 'not fulfilled'),
  ('Cc1ccc(N2C[C@@H]3CN(Cc4ccoc4)CCO[C@@H]3C2)nn1', 'not fulfilled'),
  ('Cc1ccc(CNCCC(O)(c2nccn2C)C(F)(F)F)o1 (stereo unspecified)', 'fulfilled'),
  ('c1cc(CN2CCCC23CCCN(Cc2ccoc2)C3)ccn1 (stereo unspecified)', 'not fulfilled'),
  ('Cc1cc(C)c(CNc2ncnc3ccccc23)c(=O)[nH]1', 'fulfilled'),
  ('Fc1cccnc1O[C@@H]1CN(Cc2ccco2)[C@@H]2CCCO[C@@H]21', 'not fulfilled'),
  ('Cc1cccc(C)c1NC(=O)CNC(C)Cc1ccsc1 (stereo unspecified)', 'fulfilled'),
  ('Cn1ccnc1CN1CC2(CCN(Cc3ccncc3)C2)C1', 'not fulfilled'),
  ('Cn1ccnc1C(O)(CCNCc1ccc(Cl)o1)C(F)(F)F (stereo unspecified)', 'fulfilled'),
  ('Cc1nc(CO[C@@H]2CN(Cc3ccccn3)[C@@H]3COC[C@@H]32)cs1', 'fulfilled'),
  ('COc1ccccc1C(C)(C)NCc1ccc(C)o1', 'fulfilled'),
  ('Fc1ccccc1C1(CNC2CCOC3(CCOCC3)C2)CCCC1 (stereo unspecified)', 'fulfilled'),
  ('Cc1ccc(NC(=O)CNC(C)Cc2ccsc2)cc1F (stereo unspecified)', 'fulfilled'),
  ('O=C1Nc2ccccc2C12CCN(Cc1nccs1)CC2', 'not fulfilled'),
  ('COc1ccc(CNC(C)Cn2cccn2)cc1F (stereo unspecified)', 'not fulfilled'),
  ('c1cnnc(N2CCCC2CNc2ncnc3sccc23)c1 (stereo unspecified)', 'fulfilled');

----------
# INHIBITION values compiled below
- Test system: Plasmodium falciparum
- PROTOCOL: Screen against P. falciparum Asexual Blood Stage (ABS), at 5uM
- Format: functional, Dd2
- TEST_PARAMETERS: tested at 5 uM
Hit rate of the full screen: of about 65,000 compounds, about 2,100 (3.2%) showed an effect of 50% or more. The median lay at about -52%. The list comes from a sample in which strong results are over-represented; it also holds close analogues and randomly drawn compounds.
OBSERVED_PROPERTY: INHIBITION (%)

INSERT INTO assay_data (compound, observed_property, readout_value) VALUES
  ('Cc1nn(C)c2ncc(S(=O)(=O)N3CCN4CCCC4C3)cc12 (stereo not given)', 'INHIBITION', -67.5),
  ('CC(C)c1cc(C(=O)N2CCN(C)[C@@H]3CS(=O)(=O)C[C@@H]32)no1', 'INHIBITION', -14.6),
  ('Cc1cc(CC(C)NC2CCN(CC(C)C)CC2)[nH]n1 (stereo not given)', 'INHIBITION', -57.2),
  ('Cc1nnc(N2CCNCC2)c(C(N)=O)c1C', 'INHIBITION', -11.3),
  ('Cc1c(CNC2CCN(c3ccccc3OC(F)F)C2)cnn1C (stereo not given)', 'INHIBITION', 71);

----------
- Tested on: Plasmodium falciparum
- PROTOCOL: Screen against P. falciparum Asexual Blood Stage (ABS), at 5uM
- Format: functional, Dd2
- TEST_PARAMETERS: tested at 5 uM
In all, about 65,000 compounds went through this assay and about 2,100 (3.2%) showed an effect of 50% or more. The median lay at about -52%. This excerpt belongs to a sample that is enriched for strong results.
OBSERVED_PROPERTY: INHIBITION (%)

INSERT INTO assay_data (compound, observed_property, unit_info, readout_value) VALUES
  ('CC(C)N1[C@H](Cn2cncn2)C[C@@H]2CNCC[C@@H]21', 'INHIBITION', '%', -34.9),
  ('c1cncc(O[C@H]2CC[C@H]3[C@H]2OCCN3C2CCC2)c1', 'INHIBITION', '%', -27.2),
  ('CN(CCc1ccc(F)cc1)Cc1nc2c(cnn2C)c(=O)[nH]1', 'INHIBITION', '%', -97.7),
  ('O=C1CSC(c2ccsc2)c2c(n(C3CCCC3)[nH]c2=O)N1 (stereo not drawn)', 'INHIBITION', '%', -94.4),
  ('O=C(c1ccco1)N1CCN2C[C@H](OCc3cccnc3)C[C@H]2C1', 'INHIBITION', '%', -180),
  ('Cc1nc(CN2CCN(C(=O)COc3c(C)ccc(C)c3C)CC2)no1', 'INHIBITION', '%', -66.3),
  ('O=C(Cc1ccccc1)N1CCC2(CCN2Cc2ccc(F)cc2)C1 (stereo not drawn)', 'INHIBITION', '%', -12.1),
  ('Cc1nc(N(C)C)nc2c1COCC21CCN(CC2CC2)C1 (stereo not drawn)', 'INHIBITION', '%', 50.3);

----------
- Test system: Plasmodium falciparum
- PROTOCOL: Screen against P. falciparum Asexual Blood Stage (ABS), at 5uM
- Format: functional, Dd2
- TEST_PARAMETERS: tested at 5 uM
The campaign covered roughly 65,000 compounds. About 2,100 (3.2%) showed an effect of 50% or more. The median lay at about -52%. This is one part of a sample in which strong results are shown more often than they occur.
Readings of INHIBITION for the listed molecules
OBSERVED_PROPERTY: INHIBITION

INSERT INTO results (molecule, observed_property, readout_value) VALUES
  ('CN(CCO)Cc1cc(Cl)ccc1OCC(O)CN1CCCCCC1 (stereo unspecified)', 'INHIBITION', '81.5%'),
  ('c1ccc(OC[C@@H]2CCC[C@@]23CNCCO3)nc1', 'INHIBITION', '66.9%'),
  ('c1cnc(N2CCC3(CN(CC4CCOC4)C3)C2)nc1 (stereo unspecified)', 'INHIBITION', '-15.6%'),
  ('Cc1cc(-n2cccn2)ccc1CN1CCOCC(CN(C)C)C1 (stereo unspecified)', 'INHIBITION', '73%'),
  ('CCN(C(C)c1cccc(O)c1)S(=O)(=O)c1cccnc1 (stereo unspecified)', 'INHIBITION', '76.6%'),
  ('Cc1cccnc1[C@H](C)Nc1nc(-c2cccnc2)nc2c1CNC2', 'INHIBITION', '78%'),
  ('O=C1[C@@H]2CCN(Cc3ccoc3)C[C@@H]2OCCN1c1cccnc1', 'INHIBITION', '23.5%'),
  ('Cc1noc([C@H]2C[C@H]3OCC[C@H]3N(Cc3ccncc3)C2)n1', 'INHIBITION', '-164%'),
  ('c1cnc(N2CCCC3(CCN(CC4CCC4)C3)C2)nc1 (stereo unspecified)', 'INHIBITION', '53.9%'),
  ('O=S1(=O)NCC2(CCN(Cc3ccc(Cl)s3)C2)Oc2ncccc21 (stereo unspecified)', 'INHIBITION', '-56.7%'),
  ('Cc1csc(CN2C[C@@H]3CN(C)CCO[C@@H]3C2)n1', 'INHIBITION', '-19.5%'),
  ('COc1ccc(CNC(C)c2ccccc2Cl)c(OC)c1OC (stereo unspecified)', 'INHIBITION', '75.6%'),
  ('CO[C@H]1COCCN(Cc2c[nH]c3ccccc23)C1', 'INHIBITION', '-48.4%'),
  ('c1cncc(OC[C@@H]2CCC[C@@]23CNCCO3)c1', 'INHIBITION', '67%'),
  ('c1cncc(COC[C@@H]2CCC[C@]23CNCCO3)c1', 'INHIBITION', '-12.9%'),
  ('Cn1ccc(CN2CCOCC23CCNCC3)n1', 'INHIBITION', '-75.7%'),
  ('CCC(CC)CN1CCC2(CCCN(c3ncccn3)C2)C1 (stereo unspecified)', 'INHIBITION', '62.6%'),
  ('CC(Nc1nc(-c2ccccc2)nc2c1CCNCC2)c1cccnc1 (stereo unspecified)', 'INHIBITION', '90.9%'),
  ('CCC(=O)N1CCN(Cc2cnc(C)nc2)[C@H]2CS(=O)(=O)C[C@H]21', 'INHIBITION', '-106%'),
  ('CCCn1ccnc1CN1CCCC1c1ccccn1 (stereo unspecified)', 'INHIBITION', '86.8%'),
  ('CN1CCO[C@@H]2CN(S(=O)(=O)c3cccnc3)C[C@@H]2C1', 'INHIBITION', '-79%'),
  ('CC(c1cccc(O)c1)N(C)S(=O)(=O)c1cccnc1 (stereo unspecified)', 'INHIBITION', '71.4%'),
  ('CCN1CC(=O)NCC12CCN(C(=O)c1ccno1)C2 (stereo unspecified)', 'INHIBITION', '-7.44%'),
  ('COCCN1CCC12CCN(C(=O)c1ccc(C)nc1)C2 (stereo unspecified)', 'INHIBITION', '-172%'),
  ('Cc1noc(C)c1CN1CCCC2(CCN(CC3CCCC3)C2)C1 (stereo unspecified)', 'INHIBITION', '83.1%'),
  ('O=C1[C@H]2CN(Cc3ccncc3)C[C@H]2CN1c1cncnc1', 'INHIBITION', '-49.7%'),
  ('NC(=O)C1CN(C(=O)Nc2cc(Cl)cc(Cl)c2)CCO1 (stereo unspecified)', 'INHIBITION', '84.9%'),
  ('CN1CC=C(c2noc(CCC(=O)N3CCOCC3)n2)CC1', 'INHIBITION', '-132%'),
  ('CN(Cc1ccsc1)c1nc(-c2ccccn2)nc2c1CCNCC2', 'INHIBITION', '79.7%'),
  ('CC(C)N1CCO[C@H]2CN(C(=O)c3ccccn3)C[C@H]21', 'INHIBITION', '-46.1%'),
  ('CCOC(=O)[C@@H]1[C@@H](c2ccccc2)CN2CCN(C(=O)C3CC3)C[C@H]12', 'INHIBITION', '-91.7%'),
  ('Cc1ccc(C(=O)N2C[C@H](N3CCOCC3)[C@@H]3OCCC[C@@H]32)cn1', 'INHIBITION', '-62.2%'),
  ('CN(C)C(=O)COC[C@H]1CC[C@@H]2[C@@H](CCN2Cc2ccccn2)O1', 'INHIBITION', '-79.4%'),
  ('COCCN(C)Cc1cc(Cl)ccc1OCC(O)CN1CCCCCC1 (stereo unspecified)', 'INHIBITION', '83.9%'),
  ('COc1ccc(CNC(C)c2ccc(Cl)cc2)c(OC)c1OC (stereo unspecified)', 'INHIBITION', '80.9%'),
  ('NCC1CCCN(c2nc(-c3ccccc3)nc3c2CCNCC3)C1 (stereo unspecified)', 'INHIBITION', '85.9%'),
  ('c1cncc(N2CCOCC3(CCCN(Cc4cccs4)C3)C2)c1 (stereo unspecified)', 'INHIBITION', '55.5%'),
  ('CN1CCN(Cc2ccsc2)Cc2cccnc21', 'INHIBITION', '-81%'),
  ('N#CC1CCCN(c2nc(-c3ccccc3)nc3c2CCNCC3)C1 (stereo unspecified)', 'INHIBITION', '79.9%'),
  ('CCN1CCCC12CCCN(c1ncccn1)C2 (stereo unspecified)', 'INHIBITION', '-31.8%'),
  ('CC(Nc1nc(-c2ccncc2)nc2c1CCNC2)c1ccccc1 (stereo unspecified)', 'INHIBITION', '71.5%');
